Hello, the source for this data is PubChem BioAssay AID504466, in case you need it.

# assay-remarks: qHTS screen for small molecules that induce genotoxicity in human embryonic kidney (HEK293T) cells expressing luciferase-tagged ELG1; note: nearly all actives have a fitted effect of over 60% in size
# condition-details: HEK293T ELG1-luciferase reporter, luminescence, 16 h; series mostly up to 46 µM
About 4,200 (1.3%) of roughly 330,000 compounds were called active. Roughly 6% stayed inconclusive and do not appear here. Calls come from the whole dose curve; as a rule, active = well fitted activation curve with a large enough effect; inconclusive = small, poorly fitted or top-dose-only effect; inactive = no such curve, though single readings can be large or run the other way. What follows is part of a selection rich in actives, with near analogues and random picks from the rest.
Just give me one of these, please: True = active, False = inactive

1. Nc1ccc(S(=O)(=O)Nc2nccc(/C=C/c3ccc(Br)s3)n2)cc1; False
2. Clc1ccc(Nc2nc(-c3cccs3)cs2)nc1; True
3. CCCCNc1c(-c2cccc(Sc3ccc(OC)cc3)c2)nc2ccccn12; False

Read the next record carefully.
INPUT: How was COc1ccccc1OCC(=O)OCc1cc(-c2ccco2)on1 classified in this test?
OUTPUT: False

###

# assay-remarks: qHTS screen for small molecules that induce genotoxicity in human embryonic kidney (HEK293T) cells expressing luciferase-tagged ELG1; note: nearly all actives have a fitted effect of over 60% in size
# condition-details: HEK293T ELG1-luciferase reporter, luminescence, 16 h; series mostly up to 46 µM
Out of some 330,000 compounds screened, about 4,200 (1.3%) were called active. Not shown: some 6% with an inconclusive outcome. The call rests on the fitted dose curve; in most records, active means well fitted activation curve with a large enough effect; inconclusive means small, poorly fitted or top-dose-only effect; inactive means no such curve, though single readings can be large or run the other way. The list comes from a sample in which actives are over-represented; it also holds close analogues and randomly drawn compounds.
Just give me one of these, please: active, inactive

INPUT: How was CC(=O)c1sc(N)nc1C classified in this test?
OUTPUT: inactive

INPUT: How was CCOC(=O)C1=CN(Cc2ccc(Br)cc2)S(=O)(=O)NC1C (configuration not stated) classified in this test?
OUTPUT: inactive

INPUT: How was Cc1ccc(-n2cc3ccc([N+](=O)[O-])cc3n2)cc1 classified in this test?
OUTPUT: active

INPUT: How was CC(=O)c1sc(N/N=C\c2ccc(C)cc2)nc1C classified in this test?
OUTPUT: active

###

# assay-remarks: qHTS screen for small molecules that induce genotoxicity in human embryonic kidney (HEK293T) cells expressing luciferase-tagged ELG1; note: nearly all actives have a fitted effect of over 60% in size
# condition-details: HEK293T ELG1-luciferase reporter, luminescence, 16 h; series mostly up to 46 µM
About 4,200 (1.3%) of roughly 330,000 compounds were called active. Roughly 6% stayed inconclusive and do not appear here. Calls follow the shape of the dose curve; as a rule, active = well fitted activation curve with a large enough effect; inconclusive = small, poorly fitted or top-dose-only effect; inactive = no such curve, though single readings can be large or run the other way. The sample as a whole holds a higher share of actives than the screen did.
Just give me one of these, please: T (active), F (inactive)

For orientation, consider the following solved cases.
1. Cn1cccc1C(=O)OCC(=O)c1ccc(Br)s1; F
2. O=C(NCCc1cccc(F)c1)C1CCCN(c2nc3ccccc3s2)C1 (configuration not stated); F
3. COc1cc(C(=O)OCc2ccc([N+](=O)[O-])cc2)cc(OC)c1OC; F
4. CSCC[C@H](NC(=O)OC(C)(C)C)C(=O)N/N=C/c1cc2ccc(C)cc2nc1Cl; F
5. C=CCNC(=O)c1cc(-c2ccccc2O)on1; T
6. O=C(CN1C(=O)NC2(CCCCCC2)C1=O)NCc1ccc(F)cc1; F

INPUT: How was CCC(CO)Oc1cc(NC(=O)c2ccc(Cl)cc2)c2ncn(C(C)C)c2c1 (configuration not stated) classified in this test?
OUTPUT: F

INPUT: How was Fc1ccc2nc(N3CCCCC3)sc2c1 classified in this test?
OUTPUT: T

INPUT: How was Cc1ccc(-n2nc3ccc(NC(=O)/C=C/c4ccco4)cc3n2)cc1C classified in this test?
OUTPUT: F

INPUT: How was Cc1ccc2cc(/C=N/NC(=O)[C@@H]3CCCN3)c(Cl)nc2c1 classified in this test?
OUTPUT: F

INPUT: How was COc1ccccc1OCCCC(=O)Nc1ccc2c(c1)OCCO2 classified in this test?
OUTPUT: F

INPUT: How was O=C(NNS(=O)(=O)c1c(F)cc(F)c(Cl)c1F)C12CC3CC(CC(C3)C1)C2 classified in this test?
OUTPUT: F

INPUT: How was COc1cc(C(=O)NC2CCN(C)CC2)ccc1Nc1ncc2c(n1)N(C1CCC(O)CC1)CCC(=O)N2C (configuration not stated) classified in this test?
OUTPUT: F

INPUT: How was CCC(=O)Nc1ccc2nn(-c3ccc(F)cc3)nc2c1 classified in this test?
OUTPUT: T

INPUT: How was Cc1ccc(NC(=O)C2CCC(C(C)(C)C)CC2)cc1S(=O)(=O)N1CCOCC1 (configuration not stated) classified in this test?
OUTPUT: F

INPUT: How was Cc1cc(C)cc(NC(=O)N2CCCCCCC2)c1 classified in this test?
OUTPUT: F

INPUT: How was CC1CCCCC1NC(=O)Cn1cnc2c1c(=O)n(C)c(=O)n2C (configuration not stated) classified in this test?
OUTPUT: F

INPUT: How was C=CCN(C(=O)Nc1ccc2c(c1)nc(C)n2C)c1ccccc1 classified in this test?
OUTPUT: F

INPUT: How was O=C(CNC(=O)c1ccc2ccccc2c1)Nc1ncccc1O classified in this test?
OUTPUT: F

INPUT: How was COC(=O)CCNc1ccc2c(c1)OCCO2 classified in this test?
OUTPUT: T

INPUT: How was CCCCOc1ccc(-c2nnc(-c3ccco3)o2)cc1 classified in this test?
OUTPUT: T

INPUT: How was Cc1ccc(S(=O)(=O)Nc2ccc(F)c(S(=O)(=O)N3CCOCC3)c2)cc1 classified in this test?
OUTPUT: F

###

# assay-remarks: qHTS screen for small molecules that induce genotoxicity in human embryonic kidney (HEK293T) cells expressing luciferase-tagged ELG1; note: nearly all actives have a fitted effect of over 60% in size
# condition-details: HEK293T ELG1-luciferase reporter, luminescence, 16 h; series mostly up to 46 µM
In all, about 330,000 compounds went through this assay and about 4,200 (1.3%) were called active. About 6% were inconclusive and are not listed. Calls come from the whole dose curve; as a rule, active = well fitted activation curve with a large enough effect; inconclusive = small, poorly fitted or top-dose-only effect; inactive = no such curve, though single readings can be large or run the other way. This is one part of a sample in which actives are shown more often than they occur.
Just give me one of these, please: active, inactive

1. Cn1nnnc1SCC(=O)Nc1sccc1C(N)=O; inactive
2. Cn1c(=O)n(C)c2cc(NS(=O)(=O)c3ccc(F)cc3)ccc21; active

INPUT: How was Cc1cc(=O)n2[nH]c(-c3sccc3-n3c(C)ccc3C)cc2n1 classified in this test?
OUTPUT: inactive

###

# assay-remarks: qHTS screen for small molecules that induce genotoxicity in human embryonic kidney (HEK293T) cells expressing luciferase-tagged ELG1; note: nearly all actives have a fitted effect of over 60% in size
# condition-details: HEK293T ELG1-luciferase reporter, luminescence, 16 h; series mostly up to 46 µM
The campaign covered roughly 330,000 compounds. About 4,200 (1.3%) were called active. About 6% were inconclusive and are not listed. Calls come from the whole dose curve; as a rule, active = well fitted activation curve with a large enough effect; inconclusive = small, poorly fitted or top-dose-only effect; inactive = no such curve, though single readings can be large or run the other way. Shown is part of a subset that was picked to be rich in actives.
Just give me one of these, please: active, inactive

1) C/C=C/c1ccc(OCC(=O)NNC(=O)CN(C)S(=O)(=O)c2ccc(C)cc2)c(OC)c1; inactive
2) Cc1cccc(Nc2nc(-c3ccccc3)cs2)n1; active
3) O=C(COC(=O)c1cccc(Br)c1)Nc1cccc2c1C(=O)c1ccccc1C2=O; active
4) Cc1cccc(S(=O)(=O)CC(=O)Nc2nc(-c3ccccc3)cs2)c1; inactive

INPUT: How was CCc1c(C)sc(NC(=O)c2ccc(Br)o2)c1C(=O)OC classified in this test?
OUTPUT: inactive

INPUT: How was COc1ccccc1N(CC(=O)Nc1ccc(C)cc1Cl)S(=O)(=O)c1cccs1 classified in this test?
OUTPUT: inactive

INPUT: How was CCc1noc(C)c1C(=O)Nc1nc(-c2ccccc2)cs1 classified in this test?
OUTPUT: inactive

###

# assay-remarks: qHTS screen for small molecules that induce genotoxicity in human embryonic kidney (HEK293T) cells expressing luciferase-tagged ELG1; note: nearly all actives have a fitted effect of over 60% in size
# condition-details: HEK293T ELG1-luciferase reporter, luminescence, 16 h; series mostly up to 46 µM
Hit rate of the full screen: of about 330,000 compounds, about 4,200 (1.3%) were called active. Not shown: some 6% with an inconclusive outcome. The call rests on the fitted dose curve; in most records, active means well fitted activation curve with a large enough effect; inconclusive means small, poorly fitted or top-dose-only effect; inactive means no such curve, though single readings can be large or run the other way. The full list was thinned out, with actives kept by preference.
Just give me one of these, please: y = active, n = inactive

For orientation, consider the following solved cases.
1) Cc1ccc(S(=O)(=O)NCCC(=O)Nc2cccc(S(N)(=O)=O)c2)cc1C; n
2) CCN(CC)CCCNC(=O)COc1ccc2oc3c(c2c1)CCCC3; n
3) O=C(CCNC(=O)c1ccc(Br)cc1)NCCCc1ccccc1; n
4) N#CCCN(C(=O)COC(=O)c1ccc2c(c1)OCCO2)c1ccccc1; n
5) CCN(CC)S(=O)(=O)c1ccc(C)c(NC(=O)COc2ccc(Br)cc2Cl)c1; n
6) O=C1NC[C@@H](c2ccccc2)OC(=O)[C@H](Cc2ccc(F)cc2)CC/C=C/C[C@H]1CC(=O)N(CCO)Cc1ccccc1; n
7) Cc1ccc(S(=O)(=O)NCC(=O)NNC(=O)c2ccc(Br)cc2)cc1C; n
8) Cc1cccc(NC(=O)COc2ccc(Br)cc2C)n1; y

INPUT: How was COc1ccc2[nH]c3c(c2c1)CCN1C(=O)C(CC(=O)NCCCN(C)C)C[C@H](C(=O)N2CCOCC2)[C@@]31CCC1CCCC1 (some centres undefined) classified in this test?
OUTPUT: n

INPUT: How was O=C(COc1ccc2oc3c(c2c1)CCCC3)Nc1ccccn1 classified in this test?
OUTPUT: y

INPUT: How was CC[C@]12c3[nH]c4cc(CCC(=O)N(C)C)ccc4c3CCN1C(=O)[C@@H](CC(=O)NCCCN(C)C)C[C@@H]2C(=O)N1CCN(C(=O)c2ccco2)CC1 classified in this test?
OUTPUT: n
